# Test details: protein stability index of a GFP-peptide fusion (GPS, HEK-293T) (PSI 1-6); higher = more stable;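 also: 24-mer peptide tiles fused after GFP, lentivirally expressed, FACS-sorted into six equal bins by GFP/DsRed ratio, decoded by Illumina sequencing, PSI is the read-weighted mean bin number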
# Condition description: treatment: DMSO; c terminus: a fixed tail appended
Recorded protein stability index by entry
# print the numeric value only

Seq string: PEIAQNFSAPDPPRPRPVSLSLRL [SMTNL2]
protein stability index: 2.91
--
Seq string: GACIVNSENKIVGIGYNGMPNGCS [DCTD]
protein stability index: 3.04
--
Seq string: TQTWCTQSWNNQAWNSPFYNCGEE [NANOGP8]
protein stability index: 3.07
--
Seq string: ELNAEKFKNSLLQKELKKAQMAKA [WEE1]
protein stability index: 4
--
Seq string: ERIRLLRQKREAAARKKYNLLQDS [C18orf25]
protein stability index: 3.25

Tell me protein stability index reported for SPMLIVFHGKYSTINPLWHIRHLG [GLT8D2] 2.82

Complete the entry with protein stability index for VGLGTCSMFSRVGGIIAPFIPSLK [SLC22A15] 2.1

Using known records, supply protein stability index for IINTKKLSARDHQKLEREARICRL [CAMK2A] 3.19

Supply recorded protein stability index for LFLLLGHGASPGLRDGGGLTPLEL [ANKRD9] here. 2.29

* * *

# Test details: protein stability index of a GFP-peptide fusion (GPS, HEK-293T) (PSI 1-6); higher = more stable
# Condition description: treatment: MLN4924 1 uM, 8 h; c terminus: a fixed tail appended
Quantity: protein stability index
No unit in the answer, only the number.

Check out these entries, answers already filled in.
Seq string: DWVMWAVNEFSLKGVDFQKFCMNG [ETS1]
Value observed: 3.05

Seq string: NLSRDVTEALILQLFSQIGPCKNC [TIA1]
Value observed: 2.91

Seq string: EALKHPWVCQRSTVASMMHRQETV [CAMK2B]
Value observed: 2.97

// fetch protein stability index given entry HRQETVECLKKFNARRKLKGAILT [CAMK2B] 2.98

* * *

# Test details: protein stability index of a GFP-peptide fusion (GPS, HEK-293T) (PSI 1-6); higher = more stable
# Condition description: treatment: DMSO; c terminus: a fixed tail appended
Binary classification by protein stability index, with 3 as an inclusive lower bound for Met; all other cases are Not met.

Seq string: EDSIFGDPKKLLTQYFVQENYLEY [MAGEA6]
Discrete label: Not met

Seq string: PQEESEESNVSMASLGEKRDHHST [CHGB]
Discrete label: Met

Seq string: DINNNFPDLNTLLWEAEDRQNVPR [CPXM2]
Discrete label: Met

Seq string: EVIISWSEKASKKYVSKELAKEIR [EIF5]
Discrete label: Not met

Seq string: GQGGKLWDPSVQSCKEGLSPRGPA [ZNF263]
Discrete label: Met

Seq string: DLPWFRTLSWYFLLCVNYFFYGET [CDS2]
Discrete label: Met

Seq string: YFSQVPVLASFILDDGEIDEIRWK [IQUB]
Discrete label: Not met

Seq string: SWARPRPDEERPLRRPRPVQRTQS [RASAL3]
Discrete label: Met

// inclusive: protein stability index at least 3? input: SAPPTSRTSSGNVWVTHEEMETLE [PPFIA4] Met

I'd appreciate it if you could say whether SLMYRSPPGAEEPQAPPASRDEAA [RETREG3] has protein stability index at least equal to 3. Met

Could you verify whether the entry STSLLTSAGNRTHKARTRPKARKQ [ADAMTSL2] shows protein stability index of no less than 3? Met

For this sequence, is measured protein stability index 3 or higher? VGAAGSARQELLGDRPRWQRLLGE [ANKRD9] Met

* * *

# Test details: protein stability index of a GFP-peptide fusion (GPS, HEK-293T) (PSI 1-6); higher = more stable
# Condition description: treatment: MLN4924 1 uM, 8 h; c terminus: a fixed tail appended
Assign class by protein stability index: not lower than 4 means MET; lower than 4 means NOT MET.

Recorded results for 3 sequences are shown here.
Seq string: THIMKGEDDALSDKHGCPAYVSPE [TRIB1]
Discrete label: MET

Seq string: VDGDQSKILISGLEPSTPYRFLLY [TNXB]
Discrete label: NOT MET

Seq string: SAPPTSRTSSGNVWVTHEEMETLE [PPFIA4]
Discrete label: MET

protein stability index >= 4 for QTLDVNRDGGLCVNDLAVGLRRLG [SLC25A25] ? NOT MET

Kindly determine if protein stability index recorded for TKKKKKTIVTDVFQGSMRIFTKKL [USP39] is above or exactly 4. NOT MET

Check this sequence for protein stability index at or above 4: VAQGPTNQGLNVMVWNQNGKSPSI [ADAMTSL2] NOT MET

* * *

protein stability index: recorded values
# Test details: protein stability index of a GFP-peptide fusion (GPS, HEK-293T) (PSI 1-6); higher = more stable
# Condition description: treatment: MLN4924 1 uM, 8 h; c terminus: a fixed tail appended
No unit in the answer, only the number.

Seq string: SIDLGTAHSAAVTASGDCYTFGSN [NEK8]
protein stability index: 4.06

Seq string: RRVGILGEELADVGGVLRGLNHSL [SCARA5]
protein stability index: 2.94

In the following, a different sequence is considered.
Answer with reported protein stability index of DSNSGCLGDTQFCFRFRQSSGRRV [DENND6A] 3.06

* * *

# Test details: protein stability index of a GFP-peptide fusion (GPS, HEK-293T) (PSI 1-6); higher = more stable
# Condition description: treatment: MLN4924 1 uM, 8 h; c terminus: a fixed tail appended
Classify as follows. Reported protein stability index greater than or equal to 3: T. Reported protein stability index below: F.

Seq string: ISQQDPESDSQGQGNGLFYSSGPQ [ZC2HC1C]
Discrete label: T
--
Seq string: DAFVKIVRHEGTRTLWSGLPATLV [SLC25A39]
Discrete label: F
--
Seq string: DLNRHLDEMCANNDFVQVDPGQVG [FAN1]
Discrete label: T

Is protein stability index at least 3? Consider TESSNTTIEDEDVKARKQEIIKVT [CAMK2D] T

Please tell me: is the sequence WGYIRYSGQYRELGGAIDFGAAYV [ATL3] at or over 3 in terms of protein stability index? F

hey, is protein stability index for this one >= 3? CYYQPAPYVSDGNFSNYYVAHPPV [TENT5C] F

Textbook exercise: given the entry HSLTPVSSDHLFLFGGFTTDKQPL [KLHDC2] , state whether its protein stability index is greater than or equal to 3. T

Tell me whether protein stability index is at least 3 here: EAVESTLQTPLDIRLKESINCQLS [TRIM14] T

* * *

# Test details: protein stability index of a GFP-peptide fusion (GPS, HEK-293T) (PSI 1-6); higher = more stable
# Condition description: treatment: MLN4924 1 uM, 8 h; c terminus: a fixed tail appended
# maps each entry to its protein stability index
Enter a number only.

The following sequences have reported results that may help.
Seq string: KPIHTTILNPHVHVIGEDAACIAY [CAMK2B]
protein stability index: 2.98
--
Seq string: KPENISLRNKLRELCVKLMFLHPV [SMG5]
protein stability index: 3.06
--
Seq string: FSFLGLLALGVSLLCNAITGITLL [PTGFR]
protein stability index: 3.09
--
Seq string: TWMFFFMMCVAERTYKQRFLFAKL [PHTF1]
protein stability index: 2.92
--
Seq string: KFLAKVNGSDPRSFPLWYEEALKD [MAGEA10]
protein stability index: 3.06

Here's the next entry for you.
Complete the entry with protein stability index for PCKQCKKKYVKGDVSLCRWHPKPY [FBXO34] 3.07

* * *

# Test details: protein stability index of a GFP-peptide fusion (GPS, HEK-293T) (PSI 1-6); higher = more stable
# Condition description: treatment: MLN4924 1 uM, 8 h; c terminus: a fixed tail appended
Quantity: protein stability index
Write the number on its own, no unit after it.

Use these answered entries as a reference point.
Seq string: LREERGHPLHPRHRKAVHLRTRGR [C6orf223]
Value observed: 4.06

Seq string: LIHPELNEGLMKWENRHEGVFKFL [ELF3]
Value observed: 2.48

Seq string: GTIKKIIHQETVSKNGNGLKNTPR [PCMTD2]
Value observed: 4.03

Please turn your attention to the following entry.
Quickly give me recorded protein stability index for PVKELAALPKATILDLSCNKLTTL [LRRC59] 3.43

* * *

# Test details: protein stability index of a GFP-peptide fusion (GPS, HEK-293T) (PSI 1-6); higher = more stable
# Condition description: treatment: MLN4924 1 uM, 8 h; c terminus: a fixed tail appended
Label Condition met for high-side protein stability index (at or above 3) and Condition not met for low-side protein stability index (below it).

Sample answers from the record:
Seq string: RAQLPKYQRNLPRPGQAPIGNPPV [ZNF207]
Discrete label: Condition met
//
Seq string: CLEGSINEHSAHCPHTPEFSVTGG [RPAIN]
Discrete label: Condition met
//
Seq string: LGGAIDFGAAYVLEQASSHIGNST [ATL3]
Discrete label: Condition met
//
Seq string: CRANRNCPIDQHHRNQCQYCRLKK [NR2F2]
Discrete label: Condition met
//
Seq string: TRRLRLAHVGMELQLKQELAMLNA [SCARA5]
Discrete label: Condition not met
//
Seq string: TADRIIRVYDGREILTCGRDGEPE [RBBP5]
Discrete label: Condition met
//
Seq string: ALVFGVNTFIALALQTLLTLIVVD [SLC19A2]
Discrete label: Condition met
//
Seq string: TRWYRAPELLVGDTQYGSSVDIWA [CDKL4]
Discrete label: Condition not met

Does the sequence ENRVSTLRVSPDGTAFCSGSWDHT [GNB5] have recorded protein stability index that is 3 or more? Condition met

Textbook exercise: given the entry FTNCYIYNKPTDDIVLMAQALEKI [BRD3] , state whether its protein stability index is greater than or equal to 3. Condition not met

Entry GRYSVHNAGISFSVKKQGETVADV [MLH1] : is its protein stability index no less than 3? Condition met

Origin of measurements: the supplement of paper PMC10567573
